B1: SPOPL (parent)
chain: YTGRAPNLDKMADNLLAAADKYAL

Variants of: B1
experiment_summary: protein stability index of a GFP-peptide fusion (GPS, HEK-293T) (PSI 1-6); higher = more stable;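 further: lentivirally expressed fusions sorted by FACS into six bins by GFP to DsRed ratio, PSI derived from sequencing read proportions per bin multiplied by bin number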
measurement_conditions: c terminus: a fixed tail appended
endpoint_name: protein stability index
Give bare numbers.

A17S :: 2.27

Hi! Can you tell me protein stability index for each of these variants?
1. A18K
2. T2H
3. A18V
4. A23C

Ans:
1.77
2.4
2.31
2.57

Hi! Can you tell me protein stability index for each of these variants?
1. Y22I
2. G3S
3. N14F
4. M11D
5. T2V
6. A17Y

Ans:
2.22
2.1
1.84
2.42
2.97
1.62
